Reference source for all entries: the nanobody polyreactivity screen of Harvey et al. (2022)

- procedure_text: yeast display, Sf9 membrane polyspecificity reagent, FACS + sequencing; frameworks hold sequencing errors
endpoint: polyreactivity (PSR sort gate)

Some sequences with recorded polyreactivity (PSR sort gate):
sequence_entry | endpoint | assay_value
QVQLVESGGGLVQAGGSLRLSCAASGLTFPIYAMGWYRQAPGKEREFVAVNTTSGGSTYYADSVKGRFTISRDNAKNTVYLQMNILKPEDTAVYYCNARPEYTYWPGYIYWGEGTQVTVSS | polyreactivity (PSR sort gate) | high polyreactivity
QVQLVESAGGLVQAGGSLRLSCAASGGIFGINAMGWYRQAPGKERELVAAINLSGGRTYYADSVKGRFTISRDNAKNTVYLQMNSLKPEDTAVYYCAAFYGYSLYGHYEYWGQGTQVTVSS | polyreactivity (PSR sort gate) | high polyreactivity
QVQLVESGGGLVQAGGSLRLSCAASGSTIATYTMGWYRQAPGKERELVAAISVSGSRTYYADSVKGRFTISRDNAKNTVYLQMNSLIPEDTAVYYCNADPPVKLYLYDYWGQGTQVTVSS | polyreactivity (PSR sort gate) | high polyreactivity
QVQLVESGGGLVQAGGSLRLSCAASGITFSYYAMGWYRQAPGKERELVAAINSSGGSTYYADSVKGRFTISRDNAKNTVYLQMNSLKPEDTAVYYCAADSFLYPYAEFGYWGQGTQVTVSS | polyreactivity (PSR sort gate) | low polyreactivity

Now for the sequence whose polyreactivity (PSR sort gate) we want.
query: # return recorded polyreactivity (PSR sort gate) for input `QVQLVESGGGLVQAGGSLRLICAASGGIFGSYAMGWYRQAPGKEREFVAAIRYGSGSTYYADSVKGRFTISRDNAKNTVYLQMNSLKPEDTAVYYCATEYWGVYGYGFIYDYWGQGTQVTVSS`
result: low polyreactivity
